experiment.description: Cytotoxicity against African green monkey Vero cells assessed as cell viability at 20 ug/ml after 72 hrs by CCK8 assay (reference value: 100%)
Format: cell-based
experimental.conditions: chlorocebus sabaeus, read-out: Activity
metric: viability at 72 h, 20 ug/ml (%)
Kindly provide the numeric value in % only, without the unit symbol.

Observe how each entry below is paired with its result.
O=C(N/N=C/c1ccc(CSc2nc3ccccc3s2)cc1)c1ccncc1; 91
COc1cc(/C=N/NC(=O)c2ccncc2)ccc1O [FTIVAZIDE]; 90
O=C(N/N=C/c1ccc(CSc2nc3ccccc3[nH]2)cc1)c1ccncc1; 107

We now examine a further compound.
-- ask Can you look up the measured viability at 72 h, 20 ug/ml of O=C(N/N=C/c1ccc(CSc2nc3ccccc3o2)cc1)c1ccncc1 for me?
-- reply 109

* * *

experiment.description: Cytotoxicity against African green monkey Vero cells assessed as cell viability at 0.625 ug/ml after 72 hrs by CCK8 assay (reference value: 100%)
Type: cell-based
experimental.conditions: chlorocebus sabaeus, read-out: Activity
Listed compounds paired with reported viability at 72 h, 0.625 ug/ml
Kindly provide the numeric value in % only, without the unit symbol.

-- ask Can you look up the measured viability at 72 h, 0.625 ug/ml of COc1cc(/C=N/NC(=O)c2ccncc2)ccc1O [FTIVAZIDE] for me?
-- reply 100

-- ask Can you look up the measured viability at 72 h, 0.625 ug/ml of O=C(N/N=C/c1ccc(CSc2nc3ccccc3s2)cc1)c1ccncc1 for me?
-- reply 94

-- ask Can you look up the measured viability at 72 h, 0.625 ug/ml of O=C(N/N=C/c1ccc(CSc2nc3ccccc3o2)cc1)c1ccncc1 for me?
-- reply 118

-- ask Can you look up the measured viability at 72 h, 0.625 ug/ml of O=C(N/N=C/c1ccc(CSc2nc3ccccc3[nH]2)cc1)c1ccncc1 for me?
-- reply 112

* * *

Listed molecules paired with reported remaining at 0.5 h
experiment.description: Stability in human liver microsomes assessed as parent compound remaining after 30 mins by LC-MS/MS analysis
Format: ADME, microsome
experimental.conditions: read-out: Stability
Kindly provide the numeric value in % only, without the unit symbol.

-- ask Can you look up the measured remaining at 0.5 h of O=C(N/N=C/c1ccc(CSc2nc3ccccc3[nH]2)cc1)c1ccncc1 for me?
-- reply 62

-- ask Can you look up the measured remaining at 0.5 h of O=C(N/N=C/c1ccc(CSc2nc3ccccc3s2)cc1)c1ccncc1 for me?
-- reply 57.2

-- ask Can you look up the measured remaining at 0.5 h of O=C(N/N=C/c1ccc(CSc2nc3ccccc3o2)cc1)c1ccncc1 for me?
-- reply 76.5

* * *

Listed molecules paired with reported viability at 72 h, 1.25 ug/ml
experiment.description: Cytotoxicity against African green monkey Vero cells assessed as cell viability at 1.25 ug/ml after 72 hrs by CCK8 assay (reference value: 100%)
Type: cell-based
experimental.conditions: chlorocebus sabaeus, read-out: Activity
Kindly provide the numeric value in % only, without the unit symbol.

O=C(N/N=C/c1ccc(CSc2nc3ccccc3s2)cc1)c1ccncc1; 103
COc1cc(/C=N/NC(=O)c2ccncc2)ccc1O [FTIVAZIDE]; 105
O=C(N/N=C/c1ccc(CSc2nc3ccccc3[nH]2)cc1)c1ccncc1; 119

We now examine a further molecule.
-- ask Can you look up the measured viability at 72 h, 1.25 ug/ml of O=C(N/N=C/c1ccc(CSc2nc3ccccc3o2)cc1)c1ccncc1 for me?
-- reply 123

* * *

experiment.description: Cytotoxicity against African green monkey Vero cells assessed as cell viability at 2.5 ug/ml after 72 hrs by CCK8 assay (reference value: 100%)
Type: cell-based
experimental.conditions: chlorocebus sabaeus, read-out: Activity
Listed compounds paired with reported viability at 72 h, 2.5 ug/ml
Kindly provide the numeric value in % only, without the unit symbol.

Observe how each entry below is paired with its result.
O=C(N/N=C/c1ccc(CSc2nc3ccccc3o2)cc1)c1ccncc1; 123
O=C(N/N=C/c1ccc(CSc2nc3ccccc3s2)cc1)c1ccncc1; 101
O=C(N/N=C/c1ccc(CSc2nc3ccccc3[nH]2)cc1)c1ccncc1; 114

We now examine a further compound.
-- ask Can you look up the measured viability at 72 h, 2.5 ug/ml of COc1cc(/C=N/NC(=O)c2ccncc2)ccc1O [FTIVAZIDE] for me?
-- reply 110

* * *

experiment.description: Cytotoxicity against African green monkey Vero cells assessed as cell viability at 0.156 ug/ml after 72 hrs by CCK8 assay (reference value: 100%)
Type: cell-based
experimental.conditions: chlorocebus sabaeus, read-out: Activity
metric: viability at 72 h, 0.156 ug/ml
# output: numeric value plus its unit

Observe how each entry below is paired with its result.
O=C(N/N=C/c1ccc(CSc2nc3ccccc3o2)cc1)c1ccncc1; 122%
COc1cc(/C=N/NC(=O)c2ccncc2)ccc1O [FTIVAZIDE]; 96%

-- ask Can you look up the measured viability at 72 h, 0.156 ug/ml of O=C(N/N=C/c1ccc(CSc2nc3ccccc3[nH]2)cc1)c1ccncc1 for me?
-- reply 115%

-- ask Can you look up the measured viability at 72 h, 0.156 ug/ml of O=C(N/N=C/c1ccc(CSc2nc3ccccc3s2)cc1)c1ccncc1 for me?
-- reply 97%

* * *

Listed molecules paired with reported viability at 72 h, 0.01 ug/ml
experiment.description: Cytotoxicity against African green monkey Vero cells assessed as cell viability at 0.01 ug/ml after 72 hrs by CCK8 assay (reference value: 100%)
Format: cell-based
experimental.conditions: chlorocebus sabaeus, read-out: Activity
Kindly provide the numeric value in % only, without the unit symbol.

Observe how each entry below is paired with its result.
COc1cc(/C=N/NC(=O)c2ccncc2)ccc1O [FTIVAZIDE]; 95
O=C(N/N=C/c1ccc(CSc2nc3ccccc3o2)cc1)c1ccncc1; 127
O=C(N/N=C/c1ccc(CSc2nc3ccccc3[nH]2)cc1)c1ccncc1; 119

-- ask Can you look up the measured viability at 72 h, 0.01 ug/ml of O=C(N/N=C/c1ccc(CSc2nc3ccccc3s2)cc1)c1ccncc1 for me?
-- reply 97

* * *

Listed compounds paired with reported MIC
System: Mycobacterium tuberculosis
experiment.description: Antimycobacterial activity against drug-susceptible Mycobacterium tuberculosis clinical isolate
Format: functional
Kindly provide the numeric value in µM only, without the unit symbol.

Observe how each entry below is paired with its result.
CO[C@H]1/C=C/O[C@@]2(C)Oc3c(C)c(O)c4c(O)c(c(/C=N/N5CCN(C)CC5)c(O)c4c3C2=O)NC(=O)/C(C)=C\C=C\[C@H](C)[C@H](O)[C@@H](C)[C@@H](O)[C@@H](C)[C@H](OC(C)=O)[C@@H]1C; 0.07
O=C(N/N=C/c1ccc(CSc2nc3ccccc3s2)cc1)c1ccncc1; 0.2
COc1cc(/C=N/NC(=O)c2ccncc2)ccc1O [FTIVAZIDE]; 0.25

-- ask Can you look up the measured MIC of O=C(N/N=C/c1ccc(CSc2nc3ccccc3[nH]2)cc1)c1ccncc1 for me?
-- reply 0.2

* * *

Test system: Mycobacterium tuberculosis
experiment.description: Antimycobacterial activity against Mycobacterium tuberculosis H37Rv ATCC 27294 measured after 7 days by microplate alamar blue assay
Type: functional
experimental.conditions: H37Rv ATCC 27294, 168 h
Listed molecules paired with reported MIC
Kindly provide the numeric value in µM only, without the unit symbol.

Observe how each entry below is paired with its result.
O=C(N/N=C/c1ccc(CSc2nc3ccccc3s2)cc1)c1ccncc1; 0.24
COc1c(N2C[C@@H]3CCCN[C@@H]3C2)c(F)cc2c(=O)c(C(=O)O)cn(C3CC3)c12 [MOXIFLOXACIN]; 0.5
O=C(N/N=C/c1ccc(CSc2nc3ccccc3o2)cc1)c1ccncc1; 0.24
O=C(NCc1ccc(CSc2nc3ccccc3[nH]2)cc1)c1cccnc1; 60.3
O=C(N/N=C/c1ccc(CSc2nc3ccccc3[nH]2)cc1)c1ccncc1; 0.23

-- ask Can you look up the measured MIC of NNC(=O)c1ccncc1 [ISONIAZID] for me?
-- reply 0.81

-- ask Can you look up the measured MIC of O=[N+]([O-])c1cn2c(n1)OC[C@@H](OCc1ccc(OC(F)(F)F)cc1)C2 [PRETOMANID] for me?
-- reply 0.44

-- ask Can you look up the measured MIC of O=C(N/N=C/c1ccc(CSc2nc3ccccc3o2)cc1)c1cccnc1 for me?
-- reply 24.8

* * *

Tested on: Mycobacterium tuberculosis
experiment.description: Antimycobacterial activity against Mycobacterium tuberculosis H37Rv ATCC 27294 measured after 7 days by microplate alamar blue assay
Type: functional
experimental.conditions: H37Rv ATCC 27294, 168 h
metric: MIC (µM)
Kindly provide the numeric value in µM only, without the unit symbol.

-- ask Can you look up the measured MIC of O=C(NCc1ccc(CSc2nc3ccccc3o2)cc1)c1ccncc1 for me?
-- reply 0.9

-- ask Can you look up the measured MIC of CN[C@@H]1[C@H](O[C@H]2[C@H](O[C@H]3[C@H](O)[C@@H](O)[C@H](N=C(N)N)[C@@H](O)[C@@H]3N=C(N)N)O[C@@H](C)[C@]2(O)C=O)O[C@@H](CO)[C@H](O)[C@H]1O for me?
-- reply 0.48

-- ask Can you look up the measured MIC of CO[C@H]1/C=C/O[C@@]2(C)Oc3c(C)c(O)c4c(O)c(c(/C=N/N5CCN(C)CC5)c(O)c4c3C2=O)NC(=O)/C(C)=C\C=C\[C@H](C)[C@H](O)[C@@H](C)[C@@H](O)[C@@H](C)[C@H](OC(C)=O)[C@@H]1C for me?
-- reply 0.08

-- ask Can you look up the measured MIC of O=C(NCc1ccc(CSc2nc3ccccc3o2)cc1)c1cccnc1 for me?
-- reply 58.2

-- ask Can you look up the measured MIC of O=C(N/N=C/c1ccc(CSc2nc3ccccc3[nH]2)cc1)c1cccnc1 for me?
-- reply 114

-- ask Can you look up the measured MIC of O=C(NCc1ccc(CSc2nc3ccccc3[nH]2)cc1)c1ccncc1 for me?
-- reply 120

Attribution: ChEMBL document CHEMBL4261527
